Molecular target: PU.1 (Mus musculus, UniProt P17433)
Construct: endogenous in cells
Assay: Luciferase assay (luminescence) in BV2 PU.1-Luciferase reporter cells
Conditions: luminescence reduction in BV2 PU.1-Luciferase cells, concentration-response, Hill's equation
Each record here notes measured IC50.

compound	study target	IC50
COc1cccc2cc(C(=O)Nc3ccc(N4CCNCC4)cc3)c(=O)oc12	PU.1 (Mus musculus, UniProt P17433)	0.258 µM
CCOC(=O)O[C@]1(C(=O)OCCl)CC[C@H]2[C@@H]3CCC4=CC(=O)C=C[C@]4(C)[C@H]3[C@@H](O)C[C@@]21C [Loteprednol, reference compound]	PU.1 (Mus musculus, UniProt P17433)	0.003 µM
O=S(=O)(NCc1ccncc1)c1ccc(C2CCCCC2)cc1	PU.1 (Mus musculus, UniProt P17433)	0.002 µM
Cn1nc(CC(=O)Nc2ccc(N3CCN(C(=O)OC(C)(C)C)CC3)cc2)c2ccccc2c1=O	PU.1 (Mus musculus, UniProt P17433)	0.025 µM
CC(=NCCCn1ccnc1)c1c(C(F)(F)F)[nH]n(-c2nc3ccccc3s2)c1=O	PU.1 (Mus musculus, UniProt P17433)	0.663 µM
CC(C)c1ccc(C2Sc3ccccc3NC3=C2C(=O)c2ccccc23)cc1 (centres unmarked)	PU.1 (Mus musculus, UniProt P17433)	2.31 µM
CCOC(=O)c1oc2ccc(S(=O)(=O)n3nc(-c4ccccc4OC)cc3N)cc2c1C	PU.1 (Mus musculus, UniProt P17433)	2.37 µM
CCc1ccc(CNC(=O)C2CCCN(c3nn4cc(-c5ccc(F)cc5)nc4s3)C2)cc1 (centres unmarked)	PU.1 (Mus musculus, UniProt P17433)	0.876 µM

Where do these numbers come from? They come from patent US20220340983A1.
